System: HCC38 cells
Test: Resazurin-based cell viability assay, monotherapy drug screen
Parameters: species or system human
Details: Homo sapiens; HCC38; 24 h drug treatment; read-out: IC50
# maps each entry to its pIC50
Here pIC50 is given on a logarithmic scale as minus log10 of the concentration in mol/L.

Below are worked cases with known answers.
CC(C)C[C@H](NC(=O)CNC(=O)c1cc(Cl)ccc1Cl)B(O)O :: 6.96
CC(C)C[C@H](NC(=O)CNC(=O)c1cc(Cl)ccc1Cl)B1OC(=O)C(CC(=O)O)(CC(=O)O)O1 :: 6.89
COC[C@H](NC(=O)c1cnc(C)s1)C(=O)N[C@@H](COC)C(=O)N[C@@H](Cc1ccccc1)C(=O)[C@@]1(C)CO1 :: 6.17

Pending compound:
q: Return reported pIC50; argument: COc1cccc2c1C(=O)c1c(O)c3c(c(O)c1C2=O)C[C@@](O)(C(=O)CO)C[C@@H]3O[C@H]1C[C@H](N)[C@@H](O)[C@H](C)O1 [Epirubicin]
a: 5.64

---

System: MCF-10A cells
Assay: Resazurin-based cell viability assay, monotherapy drug screen
Design: species or system human; scale not given here
Conditions: area under the dose response curve, 24 h
Label Criterion met when AUC >= 0.7; otherwise Criterion not met.

CC(C)C[C@H](NC(=O)[C@H](Cc1ccccc1)NC(=O)c1cnccn1)B(O)O [Bortezomib] :: Criterion not met
CC[C@H](C)[C@H](NC(=O)[C@H]([C@@H](C)CC)N(C)C(C)=O)C(=O)N[C@H](C(=O)N[C@@H](CC(C)C)C(=O)[C@@]1(C)CO1)[C@@H](C)O [Epoxomicin] :: Criterion not met
CC(C)C[C@H](NC(=O)[C@H](CCc1ccccc1)NC(=O)CN1CCOCC1)C(=O)N[C@@H](Cc1ccccc1)C(=O)N[C@@H](CC(C)C)C(=O)[C@@]1(C)CO1 [Carfilzomib] :: Criterion not met

Here is another molecule to look at.
q: hey, is AUC for this one >= 0.7? CC(=O)O[C@H]1C(=O)[C@@]2(C)[C@H]([C@H](OC(=O)c3ccccc3)[C@]3(O)C[C@H](OC(=O)[C@H](O)[C@@H](NC(=O)c4ccccc4)c4ccccc4)C(C)=C1C3(C)C)[C@]1(OC(C)=O)CO[C@@H]1C[C@@H]2O [Paclitaxel]
a: Criterion met

---

# maps each entry to its area under the dose response curve (AUC), mean ± SD
Test system: eight TNBC cell lines (BT-549, CAL-148, HCC1806, HCC38, HCC70, MDA-MB-436, MDA-MB-453, MDA-MB-468)
Assay: Monotherapy drug screen, mean across the TNBC cell lines
Settings: TNBC cell lines; 24 h
Procedure: Eighteen pharmaceutical compounds were purchased from Selleckchem (Supplementary Table 2). Stock solutions were prepared using dimethyl sulfoxide (DMSO; Merck), physiological saline (sodium chloride 0.9%) or Milli-Q water, and stored at −80 °C. […] Matched concentration solvent vehicle controls were used for each drug concentration. […] The optimal seeding density per 96-well was determined for each cell line as previously described. […]
Give the figure by itself; no unit, no explanation.

Below are worked cases with known answers.
CC[C@H](C)[C@H](NC(=O)[C@H]([C@@H](C)CC)N(C)C(C)=O)C(=O)N[C@H](C(=O)N[C@@H](CC(C)C)C(=O)[C@@]1(C)CO1)[C@@H](C)O :: 0.69
CC(C)C[C@H](NC(=O)[C@@H](NC(=O)c1cccc(-c2ccccc2)n1)[C@@H](C)O)B(O)O :: 0.69

Pending compound:
q: Return reported area under the dose response curve (AUC), mean ± SD; argument: [NH2][Pt]1([NH2])[O]CC(=O)[O]1
a: 0.68
